Readings of GI50 for the listed compounds
Tested on: SK-MEL-28
Test: NCI tumour cell line growth inhibition, 48 h
Active and inactive are the calls of the source. Cut-off read from the data, not from the text of the source: active = GI50 up to about 1.1 µM and inactive = higher.

Below, 3 compounds whose answers are already recorded.
COC(=O)/C(=N\NC(=S)NN)C(C(=O)OC)C(=O)C(=O)Nc1cccc(C(F)(F)F)c1 (stereo unspecified); 49.3 µM (inactive)
COC(=O)[C@H](C)NC(=O)[C@H](CSC)N1C(=O)N[C@@H](C(C)C)C1=O; > 100 µM (inactive)
O=C(Cc1csc(N/N=C2\C(=O)Nc3ccccc32)n1)Nc1ccccc1; 21 µM (inactive)

query: # lookup: GI50 of CN(C)c1ccc(/C=c2/c3ccccc3n3nc4ccccc4c23)cc1
result: 34.9 µM (inactive)

query: I am curious: what GI50 value has been reported for CCOC(=O)CSc1nc(N)c2c(-c3ccccc3)c3c(nc2n1)CCCC3 ?
result: > 100 µM (inactive)

----------
Listing of recorded GI50 by entry.
Test system: RXF 393
Assay: NCI tumour cell line growth inhibition, 48 h
Calls of active or inactive are those of the source. Rule as the data show it: active = GI50 up to about 1.1 µM and inactive = higher.

query: Name the recorded GI50 for C=C(C)C[C@H](Sc1nc2ccccc2s1)[C@H](C)O .
result: 48.3 µM (inactive)

query: Give the measured GI50 of C/C(Cl)=N/OC(=O)Nc1ccc(S(N)(=O)=O)c(C)c1 .
result: 16.9 µM (inactive)

query: Which GI50 is reported for this compound? O=C(NNC(=O)c1ccccc1Cl)c1ccccc1O
result: > 100 µM (inactive)

query: Data request, read-out GI50, for CC1(C)OC2COC3(CNO)OC(C)(C)OC3C2O1 (stereo unspecified)
result: > 100 µM (inactive)

query: Looking for the measured GI50 of NC(S)=Nc1cc(Cl)ccc1Cl , can you help?
result: 94 µM (inactive)

query: Can you look up the measured GI50 of CC1=C/C(=C2/N=C(N(C)C)SS2)C(C)=N1.[O-][Cl+3]([O-])([O-])O for me?
result: > 100 µM (inactive)

----------
Tested on: CAKI-1
Test: NCI tumour cell line growth inhibition, 48 h
Active and inactive are the calls of the source. Rule as the data show it: active = GI50 up to about 1.1 µM and inactive = higher.
METRIC_NAME: GI50

O=C1C=C[C@@]23C[C@@H](NC4=C2C2=NCCc5c[nH]c(c52)C4=O)SC3=C1; 17.7 µM (inactive)

Here is the next item to consider.
query: What value of GI50 has been recorded for this entry: COC(=O)C(=O)C(C(=O)OC)C(=O)C(=O)Nc1cc(Cl)c(C)cc1S(=O)(=O)O (stereo not given)
result: > 100 µM (inactive)

----------
Tested on: SF-268
Test: NCI tumour cell line growth inhibition, 48 h
The source made the active and inactive calls. No stated cut-off is given here; in the data, active = GI50 up to about 1.1 µM and inactive = higher.
METRIC_NAME: GI50

Before answering, review these 4 worked examples.
CCOC(=O)C(Cc1cn(S(=O)(=O)c2ccccc2)c2ccccc12)(NC(C)=O)C(=O)OCC; 40 µM (inactive)
N#Cc1ccc(/C=N\N2C(=O)c3ccccc3C2=O)cc1; > 100 µM (inactive)
CC(=O)/C(=C/n1c(=S)[nH]c2ccccc21)C(=O)Nc1ccccc1C; > 100 µM (inactive)
Cc1ccccc1/N=N/c1c(-c2ccccc2)nn(C(=O)CC(=O)Nc2cccc(Cl)c2)c1-c1ccccc1; 24 µM (inactive)

Let us examine a further case.
query: What value of GI50 has been recorded for this entry: Cc1cc(C)n(CN(Cn2nc(C)cc2C)C2CCCCC2)n1
result: 33 µM (inactive)

----------
Test system: SF-295
Test: NCI tumour cell line growth inhibition, 48 h
The source made the active and inactive calls. Cut-off read from the data, not from the text of the source: active = GI50 up to about 1.1 µM and inactive = higher.
Recorded measurements of GI50, one per entry

query: Requested field: GI50. Item: O=C(O)C(Sc1ccc(Cl)cc1)Sc1ccc(Cl)cc1
result: 46.9 µM (inactive)

query: Recorded GI50 for CCOP(=O)(OCC)/C(C#N)=C/c1ccc[nH]1 , please?
result: > 100 µM (inactive)

query: # get_value(readout='GI50', item= COc1ncc(C=C(C#N)C#N)c(OC)n1 )
result: 85.5 µM (inactive)

query: What value of GI50 has been reported for the following molecule? C1OCN2c3nonc3N3COCN4c5nonc5N1C2C43 (stereo unspecified)
result: > 100 µM (inactive)

query: Report GI50 for C=Cn1c([N+](=O)[O-])cnc1/C=C/c1ccc(C(=O)OCCN2CCOCC2)cc1 please.
result: > 100 µM (inactive)

query: # lookup: GI50 of S=c1sc2c(Cl)ncnc2n1-c1ccccc1
result: 12.8 µM (inactive)

----------
System: 786-0
Assay: NCI tumour cell line growth inhibition, 48 h
The source made the active and inactive calls. Cut-off read from the data, not from the text of the source: active = GI50 up to about 1.1 µM and inactive = higher.
METRIC_NAME: GI50

COc1cc(=O)oc(/C=C/CO)c1C; > 100 µM (inactive)
O=C1CCC2CCc3cccc4oc1c2c34 (stereo not drawn); > 100 µM (inactive)

query: Quick one: GI50 for COc1cc2c[n+](C)c3c4cc(OC)c(OC)cc4c(OCc4ccccc4)cc3c2cc1OC ?
result: 0.634 µM (active)

query: What does the data say about its GI50? Entry: Cc1oc2c(cc(O)c3cc(O)ccc32)c2cccc1-2
result: > 100 µM (inactive)

query: Please give the measured GI50 for this molecule: O=C1CCCCC1=C(I)I
result: 16.5 µM (inactive)

query: Data request, read-out GI50, for C(=C\c1cc(CCc2nc3ccccc3[nH]2)n[nH]1)/c1ccccc1
result: > 100 µM (inactive)

query: I would be grateful if you could share the reported GI50 for O=C(Nc1ccc(Cl)c(Cl)c1)OCCN1c2ccccc2Sc2ccccc21 .
result: > 10 µM (inactive)

query: // GI50 lookup, key: CCC(C)C(NC(=O)c1c2ccccc2nc2ccccc12)C(=O)O (stereo not drawn)
result: > 100 µM (inactive)

----------
# maps each entry to its GI50
Test system: A498
Assay: NCI tumour cell line growth inhibition, 48 h
Calls of active or inactive are those of the source. Rule as the data show it: active = GI50 up to about 1.1 µM and inactive = higher.

Here is how some compounds turned out for GI50.
O=C1CCC2CCc3cccc4oc1c2c34 (stereo unspecified); > 100 µM (inactive)
CC(C)CC(C#CCCOC(=O)c1ccccc1)OC(=O)c1ccccc1 (stereo unspecified); > 10 µM (inactive)
COC(C)(C)CCc1[nH]c2ccccc2c1CC(=O)NCCc1cncn1C; 34.3 µM (inactive)
Cc1ccc2ccc(-c3ccccc3)c3c2c1C(=O)c1ccccc1C3=O; 74 µM (inactive)
O=C1Nc2ccccc2C1Cc1ccccc1 (stereo unspecified); > 100 µM (inactive)

// next item, GI50 requested
query: Identify the measured GI50 of O=C(O)CCSC(=O)Nc1cccc([N+](=O)[O-])c1 for A498.
result: > 100 µM (inactive)

----------
System: MCF7
Assay: NCI tumour cell line growth inhibition, 48 h
The source made the active and inactive calls. Rule as the data show it: active = GI50 up to about 1.1 µM and inactive = higher. Residues, ends and D or L forms follow the SMILES beside them. *: point of attachment. Boc = CC(C)(C)OC(=O)*
Measured GI50 of individual entries

query: For O=C1c2c(Br)sc(Br)c2C(NC(=O)C(F)(F)F)C1O (stereo unspecified) , what is its reported GI50?
result: 22.8 µM (inactive)

query: Name the recorded GI50 for Cc1ccc2c(=O)c3cccc(CC(=O)O)c3[nH]c2c1C .
result: 71.6 µM (inactive)

query: I'd like to know its GI50. The compound in question is C[C@H](CCC(=O)NCCS(=O)(=O)O)[C@H]1CC[C@H]2[C@@H]3[C@H](O)C[C@@H]4C[C@H](O)CC[C@]4(C)[C@H]3CC[C@]12C
result: > 100 µM (inactive)

query: Which GI50 is reported for this compound? COc1cc(/N=N\c2cccc(S(=O)(=O)O)c2)c(C)cc1/N=N\c1ccc(/C=C/c2ccc(/N=[N+](/[O-])c3ccc(/C=C/c4ccc(/N=N\c5cc(C)c(/N=N/c6cccc(S(=O)(=O)O)c6)cc5OC)cc4)c(S(=O)(=O)O)c3)cc2S(=O)(=O)O)cc1
result: > 100 µM (inactive)

query: Item N#Cc1c(N)c2c(c(-c3ccccc3)c1-c1ccccc1)C(=O)N(N)C2=O has what recorded GI50?
result: > 100 µM (inactive)

query: If you can, please state the reported GI50 value of COC(=O)C(Cc1c[nH]c2ccccc12)NC(=O)C(Cc1c[nH]c2ccccc12)NC(=O)C(Cc1c[nH]c2ccccc12)NC(=O)C(Cc1c[nH]c2ccccc12)NC(=O)C(Cc1c[nH]c2ccccc12)NC(=O)C(Cc1c[nH]c2ccccc12)NC(=O)OC(C)(C)C (stereo unspecified) (Boc-WWWWWW-OMe; configuration not given here) .
result: 5.25 µM (inactive)

----------
Test system: UACC-257
Assay: NCI tumour cell line growth inhibition, 48 h
The source made the active and inactive calls. Rule as the data show it: active = GI50 up to about 1.1 µM and inactive = higher.
Your response should consist of one outcome taken from true = active, false = inactive

For orientation, consider the following solved cases.
COc1cc(-c2cc(=O)c3cc(C)c(C)c(C(=O)O)c3o2)cc(OC)c1OC; false
O=C1C=C(OCCCCl)C(=O)c2c(O)ccc(O)c21; true
O=C(O)CC(O)(c1ccccc1C(=O)O)c1cccc2ccccc12 (stereo unspecified); false
CC1=C(C(=O)CC(=O)C(=O)Nc2ccccc2C(F)(F)F)Sc2ccccc2N1; false
Cc1ccc(SC2C(C)(C)N(C(C)C)P2(=O)N(C(C)C)C(C)C)cc1 (stereo unspecified); false

Next:
query: // return assay outcome for CC1=C2C(=CO[C@H](C)[C@H]2C)C(O)=C(C(=O)O)C1=O
result: false
